experiment: Toxicity in Kunming mouse assessed as effect on liver weight at 100 to 200 mg/kg, iv once daily for 5 days; type: organism-based; settings: in vivo, 120 h, dose 100-200 mg/kg, time 5 day
metric name: Activity

molecule="CC(=O)N[C@H]1[C@H](OCCCCC(=O)NCCCNC(=O)CCOCC(COCCC(=O)NCCCNC(=O)CCCCO[C@@H]2O[C@H](CO)[C@H](O)[C@@H](O)[C@H]2NC(C)=O)(COCCC(=O)NCCCNC(=O)CCCCO[C@@H]2O[C@H](CO)[C@H](O)[C@@H](O)[C@H]2NC(C)=O)NC(=O)CCC(=O)NCCOCCOCCOCCOCCn2cc(COP(=O)(CO[C@H](C)Cn3cnc4c(N)ncnc43)OCOC(=O)OC(C)C)nn2)O[C@H](CO)[C@H](O)[C@H]1O (stereo partly drawn)" recorded_value=Non-toxic
molecule="CC(=O)N[C@H]1[C@H](OCCCCC(=O)NCCCNC(=O)CCOCC(COCCC(=O)NCCCNC(=O)CCCCO[C@@H]2O[C@H](CO)[C@H](O)[C@@H](O)[C@H]2NC(C)=O)(COCCC(=O)NCCCNC(=O)CCCCO[C@@H]2O[C@H](CO)[C@H](O)[C@@H](O)[C@H]2NC(C)=O)NC(=O)CCC(=O)NCCOCCOCCOCCOCCn2cc(COP(=O)(COCCn3cnc4c(N)ncnc43)OCOC(=O)C(C)(C)C)nn2)O[C@H](CO)[C@H](O)[C@H]1O (stereo partly drawn)" recorded_value=Non-toxic
molecule="CC(=O)N[C@H]1[C@H](OCCCCC(=O)NCCOCCOCCOCCOCCn2cc(COP(=O)(COCCn3cnc4c(N)ncnc43)OCOC(=O)C(C)(C)C)nn2)O[C@H](CO)[C@H](O)[C@H]1O (stereo partly drawn)" recorded_value=Non-toxic
